assay.text: method code SF-AS, from DOI: 10.1021/jf00090a013
outcome.measure: logP

| compound.smiles | outcome.measure | experimental.result |
| --- | --- | --- |
| CCC(CC)c1ccc(F)c(NC(=O)N(C)C(=O)NC)c1 | logP | 4.46 |
| CNC(=O)N(C)C(=O)Nc1ccccc1F | logP | 2.12 |
| CNC(=O)N(C)C(=O)Nc1cc(OC(C)C)ccc1F | logP | 3.08 |
| CCc1ccc(F)c(NC(=O)N(C)C(=O)NC)c1 | logP | 3.23 |
| CNC(=O)N(C)C(=O)Nc1cc([N+](=O)[O-])ccc1F | logP | 2.3 |
| CNC(=O)N(C)C(=O)Nc1cc(C(C)C)ccc1F | logP | 3.53 |
| CNC(=O)N(C)C(=O)Nc1cc(I)ccc1F | logP | 3.58 |
| CNC(=O)N(C)C(=O)Nc1cc(C2CCCCC2)ccc1F | logP | 4.58 |
| CNC(=O)N(C)C(=O)Nc1cc(C(=O)OC)ccc1F | logP | 2.28 |

---

compounds and their reported logP

| compound.smiles | logP |
| --- | --- |
| CNC(=O)N(C)C(=O)Nc1cc(-c2ccccc2)ccc1F | 3.78 |
| CNC(=O)N(C)C(=O)Nc1cc(F)ccc1F | 2.4 |
| CNC(=O)N(C)C(=O)Nc1cc(C(C)=O)ccc1F | 1.82 |
| CNC(=O)N(C)C(=O)Nc1cc(OC)ccc1F | 2.14 |
| CNC(=O)N(C)C(=O)Nc1cc(Cc2ccccc2)ccc1F | 3.9 |
| CNC(=O)N(C)C(=O)Nc1cc(C(C)(C)C)ccc1F | 3.96 |
| CNC(=O)N(C)C(=O)Nc1cc(S(=O)(=O)C(C)C)ccc1F | 1.87 |
